B1: Tyrosine-protein kinase BTK, residues 215 to 273; numbered along this chain, Q06187 (parent)
chain: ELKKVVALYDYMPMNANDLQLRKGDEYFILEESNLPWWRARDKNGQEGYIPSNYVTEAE

Variants of: B1
method.notes: abundance fitness (aPCA) (normalised: wild type 0, dead -1); higher = more abundant; growth selection in yeast, the domain comes from the species named
condition.context: Homo sapiens
Label criterion met when abundance fitness is at or above -0.1; anything below gets criterion not met.

Evaluate L35E : abundance fitness at minimum -0.1? criterion met

Evaluate G48L : abundance fitness at minimum -0.1? criterion not met

Evaluate Y54S : abundance fitness at minimum -0.1? criterion met

Evaluate E57Y : abundance fitness at minimum -0.1? criterion met

Evaluate W37V : abundance fitness at minimum -0.1? criterion met

Evaluate P51V : abundance fitness at minimum -0.1? criterion not met

Evaluate R22I : abundance fitness at minimum -0.1? criterion met

Evaluate V55G : abundance fitness at minimum -0.1? criterion not met

Evaluate Q20R : abundance fitness at minimum -0.1? criterion met

Evaluate L19F : abundance fitness at minimum -0.1? criterion not met

Evaluate Q20K : abundance fitness at minimum -0.1? criterion met

Evaluate N44D : abundance fitness at minimum -0.1? criterion met

Evaluate N44G : abundance fitness at minimum -0.1? criterion met

Evaluate Q20Y : abundance fitness at minimum -0.1? criterion met

Evaluate R39Q : abundance fitness at minimum -0.1? criterion met

Evaluate Y27C : abundance fitness at minimum -0.1? criterion not met

Evaluate N17D : abundance fitness at minimum -0.1? criterion met

Evaluate S52R : abundance fitness at minimum -0.1? criterion met

Evaluate A58W : abundance fitness at minimum -0.1? criterion not met

Evaluate R41S : abundance fitness at minimum -0.1? criterion not met

Evaluate K23C : abundance fitness at minimum -0.1? criterion met

Evaluate V55C : abundance fitness at minimum -0.1? criterion met

Evaluate G24M : abundance fitness at minimum -0.1? criterion not met

Evaluate R39Y : abundance fitness at minimum -0.1? criterion not met

Evaluate W37Q : abundance fitness at minimum -0.1? criterion met

Evaluate L21D : abundance fitness at minimum -0.1? criterion not met

Evaluate K23W : abundance fitness at minimum -0.1? criterion not met

Evaluate D18N : abundance fitness at minimum -0.1? criterion met

Evaluate P36G : abundance fitness at minimum -0.1? criterion met

Evaluate E59W : abundance fitness at minimum -0.1? criterion met

Evaluate W37C : abundance fitness at minimum -0.1? criterion met

Evaluate L35M : abundance fitness at minimum -0.1? criterion met

Evaluate Y49L : abundance fitness at minimum -0.1? criterion met

Evaluate L35W : abundance fitness at minimum -0.1? criterion met

Evaluate Q46T : abundance fitness at minimum -0.1? criterion met

Evaluate S52E : abundance fitness at minimum -0.1? criterion met

Evaluate R41V : abundance fitness at minimum -0.1? criterion not met

Evaluate P51D : abundance fitness at minimum -0.1? criterion not met

Evaluate L19N : abundance fitness at minimum -0.1? criterion not met

Evaluate N44R : abundance fitness at minimum -0.1? criterion met

Evaluate D42T : abundance fitness at minimum -0.1? criterion met

Evaluate A40I : abundance fitness at minimum -0.1? criterion not met

Evaluate G48E : abundance fitness at minimum -0.1? criterion not met

Evaluate Y54Q : abundance fitness at minimum -0.1? criterion not met

Evaluate Y54V : abundance fitness at minimum -0.1? criterion not met

Evaluate N34D : abundance fitness at minimum -0.1? criterion met
